- System: K4 kissing-loop RNA reporter;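 note: bound reporter read as fluorescence of individual clusters on recovered sequencing chips by microscopy, with normalized cluster intensities fitted with a binding model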
- Assay summary: apparent KD of K4 kissing-loop reporter; higher = weaker reporter binding
- Applied conditions: Eterna round: R107; input ligand: none
// reported apparent KD of K4 kissing-loop reporter for each item listed
Give just the number in µM; leave the unit off.

Sequence code: AAACUACGUGACGAUACCAGCUUACUCGGCAAGCCAGUGAUGUUGGUGAAAAGGAGUCAAAGCCCUUGGCAGCGUCGAAGGUUUG [Usandiat]
apparent KD of K4 kissing-loop reporter, µM: 0.252
//
Sequence code: AGUGCACUGUCAGGAUAUAUACAGUGAUGUUGUGUAUGUCAGCAAGUCAAAGACUUGCUUUUCUGUGUAGAAGGGACUGUGUACA [Omei KL FMN B Exc A v2]
apparent KD of K4 kissing-loop reporter, µM: 0.154

As a next step, examine the sequence that follows.
Please report the recorded apparent KD of K4 kissing-loop reporter for AAAUAGAUCAGUCAUCCAGUGAUGUUGGAAGGAGCGUGCGAAAGCACAGGUAGGUCGCCAGAAUAAAAGUGGCUGAUCAAAAUAA .
0.322
